From: patent US8247442B2

Entries and their IC50 values follow.
target: N-type calcium channel (NTCC) (Homo sapiens); construct: endogenous in cells; assay: FLIPR calcium mobilization assay for N-type calcium channel; conditions: calcium mobilization in vitro assay; differentiated IMR32 cells, 90 mM KCl, 5 μM nitrendipine
Sequence (Q00975 whole entry): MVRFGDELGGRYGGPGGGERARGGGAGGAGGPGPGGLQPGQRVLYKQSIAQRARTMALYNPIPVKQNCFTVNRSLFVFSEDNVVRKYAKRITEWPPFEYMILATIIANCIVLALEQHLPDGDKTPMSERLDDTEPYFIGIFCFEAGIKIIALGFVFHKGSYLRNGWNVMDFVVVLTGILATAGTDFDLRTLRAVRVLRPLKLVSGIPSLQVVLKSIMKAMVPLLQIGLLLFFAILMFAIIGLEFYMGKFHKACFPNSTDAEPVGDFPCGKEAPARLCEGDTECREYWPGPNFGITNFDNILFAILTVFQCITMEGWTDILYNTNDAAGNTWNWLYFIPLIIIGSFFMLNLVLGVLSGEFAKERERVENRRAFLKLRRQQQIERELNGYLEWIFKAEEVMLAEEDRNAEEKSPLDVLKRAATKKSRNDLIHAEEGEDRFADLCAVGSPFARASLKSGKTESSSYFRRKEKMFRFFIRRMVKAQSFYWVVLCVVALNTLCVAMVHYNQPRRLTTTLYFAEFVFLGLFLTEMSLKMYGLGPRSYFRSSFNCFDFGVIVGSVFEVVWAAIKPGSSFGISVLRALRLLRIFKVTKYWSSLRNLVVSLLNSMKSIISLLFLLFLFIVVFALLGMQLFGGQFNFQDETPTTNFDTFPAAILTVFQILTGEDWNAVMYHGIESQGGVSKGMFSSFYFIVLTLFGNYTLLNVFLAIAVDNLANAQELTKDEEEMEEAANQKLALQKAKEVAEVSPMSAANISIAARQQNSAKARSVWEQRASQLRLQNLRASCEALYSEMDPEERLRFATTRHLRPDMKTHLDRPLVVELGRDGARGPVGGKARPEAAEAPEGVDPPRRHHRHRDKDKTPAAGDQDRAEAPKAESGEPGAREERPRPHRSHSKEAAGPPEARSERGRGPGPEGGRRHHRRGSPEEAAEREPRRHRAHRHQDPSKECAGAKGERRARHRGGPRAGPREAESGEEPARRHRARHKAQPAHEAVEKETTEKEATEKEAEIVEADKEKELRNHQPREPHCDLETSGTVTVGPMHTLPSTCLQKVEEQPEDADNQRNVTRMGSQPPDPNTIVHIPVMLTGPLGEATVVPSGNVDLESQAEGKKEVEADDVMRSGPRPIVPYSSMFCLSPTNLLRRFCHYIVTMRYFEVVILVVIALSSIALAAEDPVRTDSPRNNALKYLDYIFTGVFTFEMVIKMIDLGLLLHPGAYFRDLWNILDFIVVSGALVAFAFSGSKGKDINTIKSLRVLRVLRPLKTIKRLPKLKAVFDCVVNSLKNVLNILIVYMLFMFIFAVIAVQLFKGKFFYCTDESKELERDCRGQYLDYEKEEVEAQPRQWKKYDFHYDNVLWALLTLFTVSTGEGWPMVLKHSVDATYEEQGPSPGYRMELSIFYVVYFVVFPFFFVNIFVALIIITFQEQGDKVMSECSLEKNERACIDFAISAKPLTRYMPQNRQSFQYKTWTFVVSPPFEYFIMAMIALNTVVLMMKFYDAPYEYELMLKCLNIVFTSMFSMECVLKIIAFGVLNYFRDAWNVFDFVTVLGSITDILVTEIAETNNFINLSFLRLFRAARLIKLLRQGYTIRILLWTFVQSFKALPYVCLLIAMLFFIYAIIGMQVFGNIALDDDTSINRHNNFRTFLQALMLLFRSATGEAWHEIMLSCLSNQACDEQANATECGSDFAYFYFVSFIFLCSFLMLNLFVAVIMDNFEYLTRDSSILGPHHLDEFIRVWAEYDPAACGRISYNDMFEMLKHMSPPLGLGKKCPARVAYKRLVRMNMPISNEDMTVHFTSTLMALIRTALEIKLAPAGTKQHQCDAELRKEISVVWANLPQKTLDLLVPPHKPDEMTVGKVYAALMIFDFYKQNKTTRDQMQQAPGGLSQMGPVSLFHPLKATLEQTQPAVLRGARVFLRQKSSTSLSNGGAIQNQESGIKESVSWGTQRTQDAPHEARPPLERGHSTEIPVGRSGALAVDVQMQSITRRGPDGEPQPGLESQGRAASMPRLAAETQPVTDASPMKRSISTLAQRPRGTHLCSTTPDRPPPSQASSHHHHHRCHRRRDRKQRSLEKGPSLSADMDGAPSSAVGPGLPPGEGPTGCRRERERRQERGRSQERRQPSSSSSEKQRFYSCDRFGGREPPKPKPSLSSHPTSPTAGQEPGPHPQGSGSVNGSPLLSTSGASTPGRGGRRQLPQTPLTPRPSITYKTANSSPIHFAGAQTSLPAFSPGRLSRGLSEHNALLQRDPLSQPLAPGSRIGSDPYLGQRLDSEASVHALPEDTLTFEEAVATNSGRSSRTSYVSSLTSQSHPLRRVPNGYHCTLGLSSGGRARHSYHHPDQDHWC
Sequence (P54289 25-956 partner limits assumed): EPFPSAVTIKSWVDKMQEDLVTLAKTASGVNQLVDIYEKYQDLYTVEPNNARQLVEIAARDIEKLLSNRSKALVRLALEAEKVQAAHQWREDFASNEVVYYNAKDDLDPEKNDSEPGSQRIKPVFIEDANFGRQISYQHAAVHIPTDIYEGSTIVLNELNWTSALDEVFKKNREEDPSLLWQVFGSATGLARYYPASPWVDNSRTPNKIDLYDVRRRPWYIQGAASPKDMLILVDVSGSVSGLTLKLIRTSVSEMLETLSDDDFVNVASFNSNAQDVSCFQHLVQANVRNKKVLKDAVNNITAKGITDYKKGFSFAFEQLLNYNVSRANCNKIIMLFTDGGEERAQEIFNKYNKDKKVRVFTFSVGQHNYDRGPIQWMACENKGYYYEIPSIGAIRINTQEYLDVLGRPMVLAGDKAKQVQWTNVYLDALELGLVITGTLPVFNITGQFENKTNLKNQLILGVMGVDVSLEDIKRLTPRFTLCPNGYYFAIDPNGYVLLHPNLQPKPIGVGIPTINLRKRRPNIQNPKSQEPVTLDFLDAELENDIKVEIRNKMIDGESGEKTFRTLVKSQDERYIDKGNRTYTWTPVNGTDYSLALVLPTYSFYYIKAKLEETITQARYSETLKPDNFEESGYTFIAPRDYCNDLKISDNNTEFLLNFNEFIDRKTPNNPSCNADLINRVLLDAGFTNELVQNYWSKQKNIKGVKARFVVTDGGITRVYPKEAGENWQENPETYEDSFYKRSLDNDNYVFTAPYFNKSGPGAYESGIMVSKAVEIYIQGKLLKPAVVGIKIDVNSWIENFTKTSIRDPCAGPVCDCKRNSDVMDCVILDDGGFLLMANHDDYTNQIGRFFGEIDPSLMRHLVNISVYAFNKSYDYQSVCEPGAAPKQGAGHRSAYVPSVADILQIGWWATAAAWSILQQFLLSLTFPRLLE
Sequence (P54289 957-1103 partner limits assumed): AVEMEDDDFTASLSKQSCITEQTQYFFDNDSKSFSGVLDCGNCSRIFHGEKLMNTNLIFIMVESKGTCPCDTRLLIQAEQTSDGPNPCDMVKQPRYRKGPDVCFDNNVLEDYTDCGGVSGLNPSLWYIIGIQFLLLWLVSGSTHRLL
Sequence (P54284 whole entry partner): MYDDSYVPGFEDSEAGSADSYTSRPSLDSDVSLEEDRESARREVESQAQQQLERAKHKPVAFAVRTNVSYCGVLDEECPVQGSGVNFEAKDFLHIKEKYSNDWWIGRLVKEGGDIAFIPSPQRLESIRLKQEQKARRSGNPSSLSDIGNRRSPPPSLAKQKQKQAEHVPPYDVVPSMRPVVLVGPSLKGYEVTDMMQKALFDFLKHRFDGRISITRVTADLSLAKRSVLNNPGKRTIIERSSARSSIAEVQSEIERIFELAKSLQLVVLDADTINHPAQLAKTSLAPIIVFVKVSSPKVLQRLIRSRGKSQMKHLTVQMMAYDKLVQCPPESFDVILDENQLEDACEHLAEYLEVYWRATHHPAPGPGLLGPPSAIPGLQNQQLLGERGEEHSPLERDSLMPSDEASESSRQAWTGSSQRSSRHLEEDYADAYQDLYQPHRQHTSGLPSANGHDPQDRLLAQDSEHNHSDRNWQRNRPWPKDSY
Measured Quantity: IC50

{"Compound": "CC(C)C[C@H](N)C(=O)N1CCCC(N(C2CC2)S(=O)(=O)c2cccc(C(F)(F)F)c2)C1 (some centres unmarked)", "Measured Quantity": "IC50", "Result": "1100 nM"}
{"Compound": "CC(C)CNCC(=O)N1CCCC(N(C2CC2)S(=O)(=O)c2cccc(C(F)(F)F)c2)C1 (centres unmarked)", "Measured Quantity": "IC50", "Result": "690 nM"}
{"Compound": "COCCNCCC(=O)N1CCCC(N(C2CC2)S(=O)(=O)c2cccc(C(F)(F)F)c2)C1 (centres unmarked)", "Measured Quantity": "IC50", "Result": "810 nM"}
{"Compound": "O=C(CNCc1cccnc1)N1CCCC(N(C2CC2)S(=O)(=O)c2cccc(C(F)(F)F)c2)C1 (centres unmarked)", "Measured Quantity": "IC50", "Result": "1200 nM"}
{"Compound": "CC(C)CNCCC(=O)N1CCCC(N(C2CC2)S(=O)(=O)c2cccc(C(F)(F)F)c2)C1 (centres unmarked)", "Measured Quantity": "IC50", "Result": "820 nM"}
